Readings of IC50 for the listed molecules
System: Human BuRkitt's lymphoma cell line (DG-75, ATCC No. CRL-2675)
assay-details: Proliferation inhibition of human Burkitt's lymphoma cell line DG-75 (Cell Counting Kit-8)
Format: cell-based
test-context: Homo sapiens; DG-75 cells, 72 hours culture, Cell Counting Kit-8, absorbance 450 nm; read-out: IC50 (compound concentration with a proliferation-inhibition rate of 50%), DG-75
measurement-type: IC50 (µg/mL)

1. C/C=C/C/C=C/C(C)CC(O)C1CC2OC2/C=C/C(O)C(O)/C=C/CC(C)CC(=O)O1 (stereo not shown) :: 0.08
2. C=C1/C=C(\C)C(C)CC(O)CC(=O)C(O)C(O)C(C)CC(C)OC(=O)C(C)C(O)CCCCC2OC2CC(C)C1 (stereo not shown) :: 0.02
3. C=C1/C=C(\C)C(C)CC(O)CC(=O)C(O)C(O)C(C)CC(C)OC(=O)/C(C)=C/CCCCC2OC2CC(C)C1 (stereo not shown) :: 0.4
4. C=C(C(O)CC)C(C)C(O)C1CCC/C(C)=C/C2OC(CC2C)C2OC(CC/C=C/CCC(C)C(=O)O1)CC2O (stereo not shown) :: 0.006
5. C/C1=C/C(=O)C(C)(O)/C=C/CC(C)C(CC(C)C(C)O)OC(=O)/C=C(/C)C(C)C(O)/C=C/CC(O)C1 (stereo not shown) :: 0.9
6. COc1cccc2c1C(=O)c1c(O)c3c(c(O)c1C2=O)C[C@@](O)(C(=O)CO)C[C@@H]3O[C@H]1C[C@H](N)[C@H](O)[C@H](C)O1 [Doxorubicin, doxorubicin, reference compound] :: 0.04
7. C=C1CC2C/C=C/C(O)C(C)/C(C)=C\C(=O)OC(CC(C)C(C)O)C(C)C/C=C/C(C)(O)C(O)(C1)O2 (stereo not shown) :: 0.002
